Data origin: paper PMC5714123

Measured Target: SMAD3 MH1 (Homo sapiens, UniProt P84022 1-132)
Sequence (P84022 1-132): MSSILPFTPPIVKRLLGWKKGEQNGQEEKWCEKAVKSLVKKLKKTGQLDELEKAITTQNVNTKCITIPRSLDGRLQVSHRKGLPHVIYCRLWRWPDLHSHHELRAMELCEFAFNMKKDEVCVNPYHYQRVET
Test Protocol: EMSA; Hill 3.0; EMSA: 25 mM Tris-HCl (pH not given for binding buffer; RNA stock pH 7.5), 115 mM KCl, 1 mM MgCl2, 1 mM DTT, 20 ng/ul poly I:C, 0.1 mg/ml BSA, 10% glycerol, on ice 2 h; 0.5x TBE gel at 4 C
Condition Summary: protein: recombinant; tags: 6xHis-SUMO cleaved; label: 5' 32P; hairpin
Measured Quantity: Kd
Returns: string containing the numeric result and its unit.

Challenge: Complete the entry with Kd for GGACGUACUGCCAGAAGUGGGCGUUCGCGCGUACUCUGGUGGGUACGUCC (structured_RNA) [6b hsa-miR-509 central stem dSBE]
Response given: 3000 nM
